- System: L-363
- ASSAY PROCEDURE: Cytotoxicity against human L363 cells after 48 hrs by luminometric analysis in presence of HS5 bone marrow stromal cells
- Format: functional, cell-based
- TEST CONTEXT: L-363, 48 h
In this section we review reported IC50 values for a set of compounds.
Lab book: enter the figure in µM, no units written.

CC(=O)OC[C@]12Oc3cccc(O)c3C(=O)C1=C(O)C[C@@H](C)[C@H]2OC(C)=O (relative stereo): 199

Now take the following compound into account.
Exercise: Record request: IC50 value, item CC(=O)OC[C@]12Oc3c(-c4ccc5c(c4O)C(=O)C4=C(O)C[C@@H](C)[C@@H](OC(C)=O)[C@@]4(CO)O5)ccc(O)c3C(=O)C1=C(O)C[C@@H](C)[C@H]2OC(C)=O (relative stereo)
Key: 79.4
